target: Cytochrome P450 2D6 (Homo sapiens, UniProt P10635);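 also: CYP2D6 member of a cytochrome P450 panel assay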
Sequence (P10635 whole entry): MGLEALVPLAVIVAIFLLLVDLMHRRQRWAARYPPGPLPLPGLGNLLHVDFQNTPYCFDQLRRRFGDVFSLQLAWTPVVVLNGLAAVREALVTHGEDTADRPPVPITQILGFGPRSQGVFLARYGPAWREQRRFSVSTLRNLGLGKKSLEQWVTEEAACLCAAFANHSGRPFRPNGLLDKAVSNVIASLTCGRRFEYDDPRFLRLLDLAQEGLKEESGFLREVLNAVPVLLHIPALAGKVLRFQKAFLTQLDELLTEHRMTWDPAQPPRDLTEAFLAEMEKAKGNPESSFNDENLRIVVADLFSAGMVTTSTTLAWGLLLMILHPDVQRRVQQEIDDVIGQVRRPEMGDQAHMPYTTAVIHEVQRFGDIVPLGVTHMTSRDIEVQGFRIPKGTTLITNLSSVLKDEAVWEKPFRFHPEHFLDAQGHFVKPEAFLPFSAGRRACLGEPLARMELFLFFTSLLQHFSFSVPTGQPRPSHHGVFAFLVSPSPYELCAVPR
endpoint: AC50

molecule	testedTarget	AC50
CS(=O)(=O)Nc1cccc(-c2cncnc2Nc2ccccc2)c1	Cytochrome P450 2D6 (Homo sapiens, UniProt P10635)	25.1 µM (inconclusive)
COc1ccccc1-c1nc(N2CCOCC2)c2ccccc2n1	Cytochrome P450 2D6 (Homo sapiens, UniProt P10635)	12.6 µM (inconclusive)
Cc1ccc(C)c(S(=O)(=O)N2CCC(c3nc(O)c4nnn(Cc5ccc(F)cc5)c4n3)CC2)c1	Cytochrome P450 2D6 (Homo sapiens, UniProt P10635)	14.1 µM (inconclusive)
O=C(Cc1ccc(Cl)c(Cl)c1)OCCN1CCCC1	Cytochrome P450 2D6 (Homo sapiens, UniProt P10635)	31.6 µM (inconclusive)

// below: AC50 requested for another molecule
AC50 measured on CN1CC(c2ccccn2)C2(SC(=S)N(Cc3ccccc3)C2=O)C12C(=O)Nc1ccccc12 (stereo not given) = 28.2 µM (inconclusive)

Source of measurements: ChEMBL document CHEMBL1201862
